- targetSystem: neurokinin-2 receptor (NK2R/CHO cells) (Homo sapiens, UniProt P21452)
- Construct: expressed in transfected cells; host or cells: CHO cells (NK2R/CHO)
- Sequence (P21452 whole entry): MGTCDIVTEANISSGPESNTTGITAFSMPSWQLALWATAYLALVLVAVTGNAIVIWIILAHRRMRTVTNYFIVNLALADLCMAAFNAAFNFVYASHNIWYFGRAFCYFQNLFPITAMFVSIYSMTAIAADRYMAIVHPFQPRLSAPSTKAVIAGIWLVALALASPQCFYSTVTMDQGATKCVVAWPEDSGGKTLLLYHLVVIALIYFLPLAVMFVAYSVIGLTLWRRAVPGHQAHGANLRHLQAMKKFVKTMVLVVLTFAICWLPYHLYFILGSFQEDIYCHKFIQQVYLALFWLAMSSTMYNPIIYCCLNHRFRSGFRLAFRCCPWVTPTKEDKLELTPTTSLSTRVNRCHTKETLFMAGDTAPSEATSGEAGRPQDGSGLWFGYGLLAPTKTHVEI
- testDetails: Displacement of Cy5-NKA bound to NK2R/CHO cells by SR48,968
- Format: binding
pIC50: −log10 of the molar value.
measuredMetric: pIC50

In [3]: df
Out[3]:
                                   compound                              targetsystem  measuredmetric  endpointvalue
0  CC(=O)NC1(c2ccccc2)CCN(CCC(CN(C)C(=O)c2ccccc2)c2ccc(Cl)c(Cl)c2)CC1 (stereo not shown)  neurokinin-2 receptor (NK2R/CHO cells) (Homo sapiens, UniProt P21452)           pIC50           9.24
